Molecular target: T1, human PD-L1-Fc protein (human, UniProt Q9NZQ7 19-238)
T1 construct: coating antigen of the ELISAs; also called rhPD-L1-Fc; not shown: Fc
T1 sequence (Q9NZQ7 19-238 limits assumed): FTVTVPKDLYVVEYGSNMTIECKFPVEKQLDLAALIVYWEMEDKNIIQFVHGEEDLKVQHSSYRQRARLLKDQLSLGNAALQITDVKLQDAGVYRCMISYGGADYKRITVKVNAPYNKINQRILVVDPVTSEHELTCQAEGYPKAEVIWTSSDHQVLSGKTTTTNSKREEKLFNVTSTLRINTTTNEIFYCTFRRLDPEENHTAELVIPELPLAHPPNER
Experiment: ELISA, antibody titrated on coated human PD-L1-Fc, OD 450nm; upper left panel
Below, each of the binders is paired with its reported EC50 value.
Report as a plain number; the unit µg/mL is understood.

Binder: Hu67F3G7-2 (antibody, V domains shown, humanized) VH: EVQLVQSGAEVKKPGASVKVSCKASGYTFTDFWVSWVRQAPGQGLEWMGEIYPNSGVSRYNEKFKGRVTMTVDKSISTAYMELSRLRSDDTAVYYCTKYFGYTYWFGYWGQGTLVTVSS VL: DIQMTQSPSSLSASVGDRVTITCRASKSVSTYMHWYQQKPGKAPKLLIYSASHLESGVPSRFSGSGSGTDFTLTISSLQPEDFATYYCQQSNELPVTFGGGTKVEIK
EC50 (µg/mL): 0.0132

Binder: Hu67F3G7-4 (antibody, V domains shown, humanized) VH: EVQLVQSGAEVKKPGASVKVSCKASGYIFTDFWVSWVRQAPGQGLEWIGEIYPNSGVSRYNEKFKGRVTMTVDKSISTAYMELSRLRSDDTAVYYCARYFGYTYWFGYWGQGTLVTVSS VL: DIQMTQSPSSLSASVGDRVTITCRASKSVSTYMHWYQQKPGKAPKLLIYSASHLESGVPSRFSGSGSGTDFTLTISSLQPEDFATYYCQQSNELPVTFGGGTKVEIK
EC50 (µg/mL): 0.0106

// below: EC50 requested for another binder
Prompt: So what's the measured EC50 for this one? Hu89C10H8-6 (antibody, V domains shown, humanized) VH: EVQLVESGGGLVKPGGSLRLSCAASGFTFSNYWMTWVRQAPGKGLEWVASITNTGSSTFYPDSVKGRFTISRDNAKNSLYLQMNSLRAEDTAVYYCTRDTTIAPFDYWGQGTMVTVSS VL: DIQMTQSPSSLSASVGDRVTITCKASQNLNEYLNWYQQKPGKAPKRLIYKTNTLQAGIPSRFSGSGSGTDYTLTISSLQPEDFATYYCSQYNSGNTFGQGTKLEIK
Response: 0.00651

Source listed as patent US20230287125A1.
